biological target: cynomolgus monkey (cyno) TIGIT protein (cynomolgus monkey, UniProt A0A7N9I9V4 89-209); assay: SPR, captured mAb
Sequence (A0A7N9I9V4 entry or part of it): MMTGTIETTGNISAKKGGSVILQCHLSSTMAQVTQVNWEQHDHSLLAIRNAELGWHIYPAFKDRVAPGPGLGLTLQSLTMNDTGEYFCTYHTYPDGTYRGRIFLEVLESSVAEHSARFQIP
REPORTED_METRIC: koff (s⁻¹)
Numbers only, in s⁻¹.

Sure, the documented koff for 4.1A4 (antibody, V domains shown, OMT rat-derived human antibody; also called 4.1A4.Q1.C96) VH: QVQLVQSGSELKKPGASVKVSCKASGYTLTNYPMNWVRQAPGRGLEWMGWINTNTGSPAYAQDFTERFVFSLDTSVTTAYLQISSLKAEDTAVYYCARTAITSVYHFDYWGQGTLVTVSS VL: DIQLTQSPSFLSASVGDRVTITCRASQGISSYLAWYQQKPGKAPRVLIYGATTLQSGVPSRFSGSESGTEFTLTISSLQPEDLATYYCQKLNSHPCSFGQGTKVEIK is 0.000643
